# Tested on: ISC-enriched organoids
# Method description: Primary screen, 384-well 2.5-D organoid differentiation (ENR+CD, 6 days): basal lysozyme secretion (LYZ.NS)
# Type: cell-based, murine
# Recorded conditions: dose 0.40 uM
Catalogue of Z.LYZ.NS (standard z score) readings, one per entry.
Metric name: Z.LYZ.NS (standard z score)

* CC(/C=C/C(=O)NO)=C\[C@@H](C)C(=O)c1ccc(N(C)C)cc1 [Trichostatin A (TSA)] | −1.697
* O=C(c1cncc(Br)c1)N1CCC(N2CCCC2)CC1 [UNC669] | −0.048
* Cc1cc(-c2ccc(CC(=O)Nc3ccc(-c4cccnc4)cc3)cc2)ccn1 [Wnt-C59 (C59)] | −1.588
* C[C@]1(c2nc3c(C(N)=O)cccc3[nH]2)CCCN1 [Veliparib (ABT-888)] | 1.211
* Nc1nc(N)c2nc(-c3cccc(O)c3)c(-c3cccc(O)c3)nc2n1 [TG100-115] | −0.223
* Cl.Cl.Cl.O[C@@H](COc1cccc2ncccc12)CN1CCN([C@@H]2c3ccccc3[C@@H]3[C@H](c4ccccc42)C3(F)F)CC1 [Zosuquidar (LY335979) 3HCl] | 0.696
* N#C[C@@H]1CCCN1C(=O)CNC12CC3CC(CC(O)(C3)C1)C2 [Vildagliptin (LAF-237)] | 2.004
* Cl.N[C@@H]1C[C@H]1c1ccccc1 (racemic) [Tranylcypromine (2-PCPA) HCl] | −0.426
* C[C@H](NC(=O)Cc1cc(F)cc(F)c1)C(=O)N[C@@H]1C(=O)N(C)c2ccccc2-c2ccccc21 [YO-01027] | 0.739

###

# System: ISC-enriched organoids
# Method description: Primary screen, 384-well 2.5-D organoid differentiation (ENR+CD, 6 days, Target Selective Inhibitor Library, vs whole-plate median): ATP (CellTiter-Glo 3D, CTG)
# Recorded conditions: Dose 0.08 uM; primary screen
Below, each of the compounds is paired with its reported Z.CTG (standard z score) value.
Metric name: Z.CTG (standard z score)

• Cl.NC(=O)c1cnc(N[C@@H]2CCCC[C@@H]2N)nc1Nc1cccc(-n2nccn2)c1 [PRT062607 (P505-15, BIIB057) HCl] = −0.219
• O=C(NC[C@H]1CN(c2ccc(N3CCOCC3=O)cc2)C(=O)O1)c1ccc(Cl)s1 = 0.050
• O=C(NC(Cc1cc(=O)[nH]c2ccccc12)C(=O)O)c1ccc(Cl)cc1 (stereo not shown) [Rebamipide] = −0.612
• Cc1cc2c(cc1CC(=O)c1sccc1S(=O)(=O)Nc1onc(C)c1Cl)OCO2 [Sitaxentan sodium] = 0.226

###

# System: ISC-enriched organoids
# Method description: Primary screen, 384-well 2.5-D organoid differentiation (ENR+CD, 6 days): basal lysozyme secretion (LYZ.NS)
# Format: cell-based, murine
# Recorded conditions: Dose 2.00 uM; primary screen, standard z score
Metric name: Z.LYZ.NS

- Cc1cc(Nc2cc(CN3CCOCC3)c3nc(C)c(Cc4ccc(Cl)cc4F)n3n2)n[nH]1 [LY2784544]: 0.591
- CCCCc1nc(Cl)c(CO)n1Cc1ccc(-c2ccccc2-c2nnn[n-]2)cc1.[K+] [Losartan Potassium (DuP 753)]: −0.362
- NC(=O)c1ccc(I)c([N+](=O)[O-])c1 [Iniparib (BSI-201)]: 0.138
- CC(C)(C)c1cc(C(C)(C)C)c(NC(=O)c2c[nH]c3ccccc3c2=O)cc1O [Ivacaftor (VX-770)]: 0.717
- Cc1cnc(NC(=O)Nc2cc(Br)c(C)cc2OC[C@@H]2CNCCO2)cn1 [LY2603618]: −1.685
- Cc1c(C(=O)Nc2ccc(N3C[C@@H](C)O[C@@H](C)C3)nc2)cccc1-c1ccc(OC(F)(F)F)cc1 [LDE225 (NVP-LDE225, Erismodegib)]: 0.094
- Cc1cccc(-c2nn3c(c2-c2ccnc4ccc(C(N)=O)cc24)CCC3)n1 [LY2157299]: 0.799
- Clc1ccc(N/N=C(\c2ccccc2)c2ccccn2)nc1 [JIB-04]: 0.048
- Cc1noc(-c2ccc(CSCCC(=O)O)cc2)c1NC(=O)OC(C)c1ccccc1Cl (stereo not shown) [Ki16425]: −0.069
- C=CC(=O)N1CCC[C@@H](n2nc(-c3ccc(Oc4ccccc4)cc3)c3c(N)ncnc32)C1 [Ibrutinib (PCI-32765)]: −1.763
